Measured IC50 accompanies every entry in the list below.
Test system: COLO320DM cells
Test: COLO320DM proliferation assay
Format: cell-based, human
Conditions: read-out: COLO320DM Proliferation Abs IC50
property label: IC50

{"compound": "CC(=O)N1CCC[C@]12CC=CCCCC1(CCCC=CCCCOC(=O)N3CC[C@@]4(C3)NC(=O)[C@H](CCCCNC(=O)CC[C@@H](C(=O)N[C@@H](C)C(N)=O)NC(=O)[C@H](Cc3csc5ccccc35)NC(=O)[C@H](Cc3ccsc3)NC4=O)NC(=O)[C@H](Cc3ccccc3)NC(=O)[C@H](C)NC(=O)C(C)(C)NC(=O)[C@H](Cc3cccc(C(=O)O)c3)NC(=O)[C@H](CC(=O)O)NC1=O)NC(=O)[C@H](C)NC(=O)[C@H](CC(=O)O)NC2=O (relative stereo)", "result": "≤ 10 µM"}
{"compound": "CC(=O)N1CCC[C@]12CC=CCCCC1(CCCC=CCCCOC(=O)N3CC[C@@]4(C3)NC(=O)[C@H](CCCCNC(=O)CC[C@@H](C(=O)N3CCC[C@H]3CO)NC(=O)[C@H](Cc3csc5ccccc35)NC(=O)[C@H](Cc3ccsc3)NC4=O)NC(=O)[C@H](Cc3ccccc3)NC(=O)[C@H](C)NC(=O)[C@H](C)NC(=O)[C@H](Cc3cccc(C(=O)O)c3)NC(=O)[C@H](CC(=O)O)NC1=O)NC(=O)[C@H](CC(C)(C)C)NC(=O)[C@H](CC(=O)O)NC2=O (relative stereo)", "result": "10 to 20 µM"}
{"compound": "CC(=O)N1CCC[C@@]1(C)C(=O)N[C@@H](CC(=O)O)C(=O)N[C@H](C(=O)N[C@]1(C)CCCCCCCCOC(=O)N2CC[C@@]3(C2)NC(=O)[C@H](CCCCNC(=O)CC[C@@H](C(=O)N[C@@H](C)C(N)=O)NC(=O)[C@H](Cc2csc4ccccc24)NC(=O)[C@H](Cc2ccsc2)NC3=O)NC(=O)[C@H](Cc2ccccc2)NC(=O)[C@H](C)NC(=O)C(C)(C)NC(=O)[C@H](Cc2cccc(C(=O)O)c2)NC(=O)[C@H](CC(=O)O)NC1=O)C(C)C (relative stereo)", "result": "> 20 µM"}
{"compound": "CC(=O)N1CCC[C@]12CC=CCCCC1(CCCC=CCCCOC(=O)N3CC[C@@]4(C3)NC(=O)[C@H](CCCCNC(=O)CC[C@@H](C(=O)N[C@@H](C)C(N)=O)NC(=O)[C@H](Cc3csc5ccccc35)NC(=O)[C@H](Cc3ccccc3C)NC4=O)NC(=O)[C@H](Cc3ccccc3)NC(=O)[C@H](C)NC(=O)C(C)(C)NC(=O)[C@H](Cc3cccc(C(=O)O)c3)NC(=O)[C@H](CC(=O)O)NC1=O)NC(=O)[C@H](CC(C)(C)C)NC(=O)[C@H](CC(=O)O)NC2=O (relative stereo)", "result": "≤ 10 µM"}
{"compound": "CC(=O)N1CCC[C@]12CC=CCCCC1(CCCC=CCCCOC(=O)N3CC[C@@]4(C3)NC(=O)[C@H](CCCCNC(=O)CC[C@@H](C(=O)N[C@@H](C)C(N)=O)NC(=O)[C@H](Cc3csc5ccccc35)NC(=O)[C@H](Cc3ccccn3)NC4=O)NC(=O)[C@H](Cc3ccccc3)NC(=O)[C@H](C)NC(=O)C(C)(C)NC(=O)[C@H](Cc3cccc(C(=O)O)c3)NC(=O)[C@H](CC(=O)O)NC1=O)NC(=O)[C@H](CC(C)(C)C)NC(=O)[C@H](CC(=O)O)NC2=O (relative stereo)", "result": "10 to 20 µM"}

====

Measured IC50 accompanies every entry in the list below.
Test system: DLD1 reporter
Assay: reporter assay (DLD1 reporter assay)
Format: cell-based
Details: read-out: DLD1 4% Abs IC50; DLD1 4%

{"compound": "CC(=O)N1CCC[C@]12CC=CCCCC1(CCCC=CCCCOC(=O)N3CC[C@@]4(C3)NC(=O)[C@H](CCCCNC(=O)CC[C@@H](C(=O)N[C@H](C(N)=O)C(C)C)NC(=O)[C@H](Cc3csc5ccccc35)NC(=O)[C@H](Cc3ccccc3C(F)(F)F)NC4=O)NC(=O)[C@H](Cc3ccccc3)NC(=O)[C@H](C)NC(=O)[C@H](C)NC(=O)[C@H](CN(CC(=O)O)CC(F)(F)F)NC(=O)[C@H](CC(=O)O)NC1=O)NC(=O)[C@H](CC(C)(C)C)NC(=O)[C@H](CC(=O)O)NC2=O (relative stereo)", "experimental system": "DLD1 reporter", "IC50": "1000 to 5000 nM"}
{"compound": "CC(=O)N1CCC[C@]12CC=CCCCC1(CCCC=CCCCOC(=O)N3CC[C@@]4(C3)NC(=O)[C@H](CCCCNC(=O)CC[C@@H](C(=O)N[C@@H](CC(C)C)C(=O)N[C@@H](CO)C(N)=O)NC(=O)[C@H](Cc3csc5ccccc35)NC(=O)[C@H](Cc3ccccc3C(F)(F)F)NC4=O)NC(=O)[C@H](Cc3ccccc3)NC(=O)[C@H](C)NC(=O)C3(CCC3)NC(=O)[C@H](Cc3cccc(C(=O)O)c3)NC(=O)[C@H](CC(=O)O)NC1=O)NC(=O)[C@H](CC(C)(C)C)NC(=O)[C@H](CC(=O)O)NC2=O (relative stereo)", "experimental system": "DLD1 reporter", "IC50": "≤ 1000 nM"}
{"compound": "CC(=O)N1CCC[C@]12CC=CCCCC1(CCCC=CCCCOC(=O)N3CC[C@@]4(C3)NC(=O)[C@H](CCCCNC(=O)CC[C@@H](C(=O)N[C@@H](C)C(N)=O)NC(=O)[C@H](Cc3csc5ccccc35)NC(=O)[C@H](Cc3ccccc3C(F)(F)F)NC4=O)NC(=O)[C@H](Cc3ccccc3)NC(=O)[C@H](C)NC(=O)[C@H](C(C)C)NC(=O)[C@H](CN(CC(=O)O)CC(F)(F)F)NC(=O)[C@H](CC(=O)O)NC1=O)NC(=O)[C@H](CC(C)(C)C)NC(=O)[C@H](CC(=O)O)NC2=O (single isomer, unassigned)", "experimental system": "DLD1 reporter", "IC50": "1000 to 5000 nM"}
{"compound": "CC(=O)N1CCC[C@]12CC=CCCCC1(CCCC=CCCCOC(=O)N3CC[C@@]4(C3)NC(=O)[C@H](CCCCNC(=O)CC[C@@H](C(=O)N[C@@H](CC(C)C)C(=O)N[C@@H](CO)C(N)=O)NC(=O)[C@H](Cc3csc5ccccc35)NC(=O)[C@H](Cc3ccccc3C(F)(F)F)NC4=O)NC(=O)[C@H](Cc3ccccc3)NC(=O)[C@H](C)NC(=O)C3(CC3)NC(=O)[C@H](Cc3cccc(C(=O)O)c3)NC(=O)[C@H](CC(=O)O)NC1=O)NC(=O)[C@H](CC(C)(C)C)NC(=O)[C@H](CC(=O)O)NC2=O (relative stereo)", "experimental system": "DLD1 reporter", "IC50": "≤ 1000 nM"}
{"compound": "CC(=O)N1CCC[C@]12CC=CCCCC1(CCCC=CCCCOC(=O)N3CC[C@@]4(C3)NC(=O)[C@H](CCCCNC(=O)CCC[C@@H](C(=O)N[C@@H](C)C(N)=O)NC(=O)[C@H](Cc3csc5ccccc35)NC(=O)[C@H](Cc3ccsc3)NC4=O)NC(=O)[C@H](Cc3ccccc3)NC(=O)[C@H](C)NC(=O)[C@H](C)NC(=O)[C@H](Cc3cccc(C(=O)O)c3)NC(=O)[C@H](CC(=O)O)NC1=O)NC(=O)[C@H](CC(C)(C)C)NC(=O)[C@H](CC(=O)O)NC2=O (relative stereo)", "experimental system": "DLD1 reporter", "IC50": "1000 to 5000 nM"}
{"compound": "CC(=O)N1CCC[C@]12CC=CCCCC1(CCCC=CCCCOC(=O)N3CC[C@@]4(C3)NC(=O)[C@H](CCCCNC(=O)CC[C@@H](C(=O)NC(C)(C)C(N)=O)NC(=O)[C@H](Cc3csc5ccccc35)NC(=O)[C@H](Cc3ccccc3C(F)(F)F)NC4=O)NC(=O)[C@H](Cc3ccccc3)NC(=O)[C@H](C)NC(=O)[C@H](C)NC(=O)[C@H](CN(CC(=O)O)CC(F)(F)F)NC(=O)[C@H](CC(=O)O)NC1=O)NC(=O)[C@H](CC(C)(C)C)NC(=O)[C@H](CC(=O)O)NC2=O (single isomer, unassigned) [I-127]", "experimental system": "DLD1 reporter", "IC50": "1000 to 5000 nM"}
{"compound": "CC(=O)N1CCC[C@]12CC=CCCCC1(CCCC=CCCCOC(=O)N3CC[C@@]4(C3)NC(=O)[C@H](CCCCNC(=O)CC[C@@H](C(=O)N[C@@H](CC(C)C)C(N)=O)NC(=O)[C@H](Cc3csc5ccccc35)NC(=O)[C@H](Cc3ccccc3C(F)(F)F)NC4=O)NC(=O)[C@H](Cc3ccccc3)NC(=O)[C@H](C)NC(=O)[C@H](C)NC(=O)[C@H](Cc3cccc(C(=O)O)c3)NC(=O)[C@H](CC(=O)O)NC1=O)NC(=O)[C@H](CC1CCCCC1)NC(=O)[C@H](CC(=O)O)NC2=O (single isomer, unassigned)", "experimental system": "DLD1 reporter", "IC50": "≤ 1000 nM"}
{"compound": "CC(=O)N1CCC[C@]12CC=CCCCC1(CCCC=CCCCOC(=O)N3CC[C@@]4(C3)NC(=O)[C@H](CCCCNC(=O)CC[C@@H](C(=O)N[C@@H](C)C(N)=O)NC(=O)[C@H](Cc3csc5ccccc35)NC(=O)[C@H](Cc3ccccc3C(F)(F)F)NC4=O)NC(=O)[C@H](Cc3ccccc3)NC(=O)[C@H](C)NC(=O)C(C)(C)NC(=O)[C@H](Cc3cccc(C(=O)O)c3)NC(=O)[C@H](CC(=O)O)NC1=O)NC(=O)[C@H](CC(C)(C)C)NC(=O)[C@H](CC(=O)O)NC2=O (single isomer, unassigned)", "experimental system": "DLD1 reporter", "IC50": "≤ 1000 nM"}
